Hey, just so you know, these numbers are from patent US10051861B2.

assay: logP by HPLC on reversed-phase columns (C 18), EEC Directive 79/831 Annex V.A8; assay type: physicochemical; conditions: pH 7.8
Criterion: logP(neutral) meeting or surpassing 3. Met: yes (1). Not met: no (0).

These solved cases illustrate the format of a correct answer.
- CNC(=Nc1cc(SCC(F)(F)F)c(F)cc1C)C(F)(F)F: yes (1)
- CNC(=Nc1cc([S+]([O-])CC(F)(F)F)c(F)cc1C)C(F)(F)F (centres unmarked): no (0)
- Cc1cc(F)c(SCC(F)(F)F)cc1N=C(N)C(F)(F)F: yes (1)
- N/C(=N/c1ccc(C(F)(F)F)c([S+]([O-])CC(F)(F)F)c1)C(F)(F)F (centres unmarked): no (0)
- Cc1cc(C)c([S+]([O-])CC(F)(F)F)cc1/N=C(/N)C(F)(F)F (centres unmarked): yes (1)

Request: Has CNC(=Nc1cc([S+]([O-])CC(F)(F)F)c(C)cc1F)C(F)(F)F (centres unmarked) a recorded logP(neutral) greater than or equal to 3?
Result: no (0)

Request: Answer whether logP(neutral) of Cc1cc(C)c(SCC(F)(F)F)cc1N=C(N)C(F)(F)F is greater than or equal to 3.
Result: yes (1)

----------
experiment: logP by HPLC on reversed-phase columns (C 18), EEC Directive 79/831 Annex V.A8; assay type: physicochemical; conditions: pH 2.7
# logP(HCOOH) values compiled below
No unit in the answer, please; the number alone is enough.

Worked cases, logP(HCOOH) given:
• Cc1cc(C)c([S+]([O-])CC(F)(F)F)cc1/N=C(/N)C(F)(F)F (centres unmarked) = 3.36
• CCCNC(=Nc1cc(SCC(F)(F)F)c(C)cc1F)C(F)(F)F = 4.45
• Cc1cc(C)c([S+]([O-])CC(F)(F)F)cc1N=C(N(C)C)C(F)(F)F (centres unmarked) = 3.23

// next entry
Record summary for CN/C(=N/c1ccc(C(F)(F)F)c([S+]([O-])CC(F)(F)F)c1)C(F)(F)F (centres unmarked) : reported logP(HCOOH) = 2.52

----------
experiment: logP by HPLC on reversed-phase columns (C 18), EEC Directive 79/831 Annex V.A8; format: physicochemical; conditions: pH 7.8
parameter-measured: logP(neutral)
// print number alone

- Cc1cc(F)c(/N=C(/NC2CC2)C(F)(F)F)cc1[S+]([O-])CC(F)(F)F (centres unmarked) [Ib-08]: 2.67
- CNC(=Nc1cc([S+]([O-])CC(F)(F)F)c(C)cc1C)C(F)(F)F (centres unmarked) [Ib-04]: 3.09
- Cc1cc(C)c([S+]([O-])CC(F)(F)F)cc1N=C(N(C)C)C(F)(F)F (centres unmarked) [Ib-09]: 3.19
- CCCNC(=Nc1cc([S+]([O-])CC(F)(F)F)c(C)cc1F)C(F)(F)F (centres unmarked) [Ib-06]: 3.17

Kindly review the next compound as well.
# logP(neutral) of N/C(=N/c1cc([S+]([O-])CC(F)(F)F)c(Cl)cc1Cl)C(F)(F)F (centres unmarked) [Ib-14] = 2.02

----------
test: logP by HPLC on reversed-phase columns (C 18), EEC Directive 79/831 Annex V.A8; type: physicochemical; settings: pH 2.7
Label Condition met for high-side logP(HCOOH) (at or above 3) and Condition not met for low-side logP(HCOOH) (below it).

Request: Tell me whether logP(HCOOH) is at least 3 here: CNC(=Nc1cc(SCC(F)(F)F)c(C)cc1C)C(F)(F)F [Ia-12]
Result: Condition met

Request: Test whether the molecule CNC(=Nc1cc([S+]([O-])CC(F)(F)F)c(F)cc1C)C(F)(F)F (stereo not drawn) [Ib-05] records logP(HCOOH) of 3 or higher.
Result: Condition not met

Request: Entry CNC(=Nc1cc(SCC(F)(F)F)c(C)cc1F)C(F)(F)F [Ia-13] : is its logP(HCOOH) no less than 3?
Result: Condition met

Request: # check: logP(HCOOH) of CCCNC(=Nc1cc([S+]([O-])CC(F)(F)F)c(C)cc1F)C(F)(F)F (stereo not drawn) [Ib-06] is greater than or equal to 3
Result: Condition met

Request: Identify whether the reported logP(HCOOH) of the following molecule is 3 or greater: CNC(=Nc1cc(SCC(F)(F)F)c(F)cc1C)C(F)(F)F [Ia-09]
Result: Condition met

Request: For this molecule, is measured logP(HCOOH) 3 or higher? Cc1cc(F)c(N=C(NC2CC2)C(F)(F)F)cc1SCC(F)(F)F [Ia-26]
Result: Condition met

Request: Is it the case that Cc1cc(F)c(/N=C(/NC2CC2)C(F)(F)F)cc1[S+]([O-])CC(F)(F)F (stereo not drawn) [Ib-08] has logP(HCOOH) reaching or exceeding 3?
Result: Condition not met

Request: Is logP(HCOOH) for Cc1cc(F)c(SCC(F)(F)F)cc1N=C(N(C)C)C(F)(F)F [Ia-24] at or above 3?
Result: Condition met

Request: Assess whether reported logP(HCOOH) for Cc1cc(C)c(SCC(F)(F)F)cc1N=C(N)C(F)(F)F [Ia-07] sits at 3 or higher.
Result: Condition met

Request: Threshold query (logP(HCOOH) >= 3) on N/C(=N/c1cc([S+]([O-])CC(F)(F)F)c(Cl)cc1Cl)C(F)(F)F (stereo not drawn) [Ib-14]
Result: Condition not met

Request: Determine whether this molecule has logP(HCOOH) no lower than 3: CNC(=Nc1cc([S+]([O-])CC(F)(F)F)c(C)cc1C)C(F)(F)F (stereo not drawn) [Ib-04]
Result: Condition met

Request: Does logP(HCOOH) meet or surpass 3 for Cc1cc(F)c(N=C(NC(C)C)C(F)(F)F)cc1SCC(F)(F)F [Ia-05] ?
Result: Condition met

Request: Determine whether this molecule has logP(HCOOH) no lower than 3: Cc1cc(F)c([S+]([O-])CC(F)(F)F)cc1N=C(N(C)C)C(F)(F)F (stereo not drawn) [Ib-15]
Result: Condition not met

----------
Assay: logP by HPLC on reversed-phase columns (C 18), EEC Directive 79/831 Annex V.A8
Assay type: physicochemical
Conditions: pH 7.8
Experimental: Calibration is carried out using unbranched alkan-2-ones (having from 3 to 16 carbon atoms) with known log P values (the log P values are determined by the retention times using linear interpolation between two successive alkanones).
parameter-measured: logP(neutral)
Write the number on its own, no unit after it.

// below: answered compounds
• Cc1cc(F)c(N=C(NC(C)C)C(F)(F)F)cc1SCC(F)(F)F = 4.52
• CNC(=Nc1cc(SCC(F)(F)F)c(C)cc1F)C(F)(F)F = 3.71
• CCCNC(=Nc1cc(SCC(F)(F)F)c(C)cc1F)C(F)(F)F = 4.43
• Cc1cc(F)c(/N=C(/N)C(F)(F)F)cc1[S+]([O-])CC(F)(F)F (stereo not drawn) = 2.71
• Cc1cc(F)c(SCC(F)(F)F)cc1N=C(N(C)C)C(F)(F)F = 4.47

Just so you know, measured logP(neutral) for Cc1cc(F)c(N=C(NC2CC2)C(F)(F)F)cc1SCC(F)(F)F came out at 4.02

Summary for this compound, CN/C(=N/c1ccc(C(F)(F)F)c([S+]([O-])CC(F)(F)F)c1)C(F)(F)F (stereo not drawn) : logP(neutral) is 2.49

What the record says about CNC(=Nc1cc(SCC(F)(F)F)c(C)cc1C)C(F)(F)F : logP(neutral) is 4.01

Briefly, logP(neutral) measured for Cc1cc(F)c([S+]([O-])CC(F)(F)F)cc1N=C(N(C)C)C(F)(F)F (stereo not drawn) : 2.14

----------
test system: green peach aphid (Myzus persicae); assay: Myzus persicae spray test (MYZUPE); format: in vivo; conditions: application rate 500 g/ha, after 6 days
parameter-measured: effect (aphids killed) (%)
Write down the numeric answer in % and omit the unit.

# example entries with known answers
* N/C(=N/c1cc([S@@+]([O-])CC(F)(F)F)c(Cl)cc1Cl)C(F)(F)F | 100
* Cc1cc(F)c(/N=C(\NC(C)C(F)(F)F)C2CC2)cc1SCC(F)(F)F (stereo not drawn) | 100
* CN(C)/C(=N\c1cc([S+]([O-])CC(F)(F)F)c(Cl)cc1Cl)c1cccnc1 (stereo not drawn) | 90
* Cc1cc(F)c(/N=C(\NCC2CCCC(C(F)(F)F)C2)C2CC2)cc1SCC(F)(F)F (stereo not drawn) | 100
* Cc1cc(C)c(SCC(F)(F)F)cc1/N=C(\N)C1(Cl)CC1 | 90

What the record says about Cc1cc(F)c(/N=C(/N)c2ccc(F)cc2)cc1SCC(F)(F)F : effect (aphids killed) is 90

----------
System: greenhouse red spider mite (Tetranychus urticae)
Experiment: Tetranychus urticae spray test, OP-resistant (TETRUR), bean leaf disks
Assay type: in vivo
Conditions: Tetranychus urticae, foliar, 144 h, application rate 500 g/ha, after 6 days; read-out: efficacy (spider mites killed)
Procedure: After 6 days, the effect in % is determined.
parameter-measured: pest or weed control at 500 g/ha (%)
Give the number; % is assumed, so skip it.

Reference set, count: 4
* Cc1cc(F)c(/N=C(\c2ccco2)N(C)C)cc1SCC(F)(F)F | 100
* N/C(=N\c1cc(SCC(F)(F)F)c(Cl)cc1Cl)C(F)F | 100
* N/C(=N\c1cccc(SCC(F)(F)F)c1)c1ccncc1 | 90
* Cc1cc(F)c(/N=C(\N)C(Cl)(Cl)Cl)cc1[S+]([O-])CC(F)(F)F (centres unmarked) | 100

Then this compound:
Log: greenhouse red spider mite (Tetranychus urticae), compound Cc1cc(F)c(/N=C(/N2CCCC2)C(F)(F)F)cc1SCC(F)(F)F , pest or weed control at 500 g/ha = 90
